# MEASURED ON: bFGF (Homo sapiens)
# Sequence (P09038 134-288 limits assumed, species assumed): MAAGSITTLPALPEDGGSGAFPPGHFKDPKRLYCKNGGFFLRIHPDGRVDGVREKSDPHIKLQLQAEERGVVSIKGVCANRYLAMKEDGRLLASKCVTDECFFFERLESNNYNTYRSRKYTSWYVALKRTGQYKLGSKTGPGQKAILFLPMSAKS
# ASSAY REMARKS: Biacore biosensor: inhibition of bFGF binding to immobilised heparin and heparan sulfate
# MEASUREMENT CONTEXT: immobilised heparin; inhibitor 0.034 μM, bFGF 0.034 μM
# Procedure: Assays were performed using a Biacore™ 2000 optical biosensor obtained from Biacore AB, Uppsala, Sweden. The biosensor was operated in accordance with the manufacturer's instructions. […] Binding of growth factor or effector compound to the heparin or heparan sulfate was then monitored for approximately 5 minutes with the biosensor. […]
Field: Inhibition of binding of bFGF (Hep). Provide a value for each of the molecules that follow.

Worked set:
MOLECULE	REPORTED RESULT
O=S(=O)(O)OC1C(OS(=O)(=O)O)C(OS(=O)(=O)O)C(N(Cc2cccc(CN(C3C(OS(=O)(=O)O)C(OS(=O)(=O)O)C(OS(=O)(=O)O)C(OS(=O)(=O)O)C3OS(=O)(=O)O)C3C(OS(=O)(=O)O)C(OS(=O)(=O)O)C(OS(=O)(=O)O)C(OS(=O)(=O)O)C3OS(=O)(=O)O)c2)C2C(OS(=O)(=O)O)C(OS(=O)(=O)O)C(OS(=O)(=O)O)C(OS(=O)(=O)O)C2OS(=O)(=O)O)C(OS(=O)(=O)O)C1OS(=O)(=O)O (centres unmarked) [Compound 5d]	35% (Hep)
O=S(=O)(O)OC1C=CC(N(CCCCCCN(C2C=CC(OS(=O)(=O)O)C(OS(=O)(=O)O)C2OS(=O)(=O)O)C2C=CC(OS(=O)(=O)O)C(OS(=O)(=O)O)C2OS(=O)(=O)O)C2C=CC(OS(=O)(=O)O)C(OS(=O)(=O)O)C2OS(=O)(=O)O)C(OS(=O)(=O)O)C1OS(=O)(=O)O (centres unmarked) [Compound 4b]	52% (Hep)
O=S(=O)(O)OC1C=CC(N(Cc2cccc(CN(C3C=CC(OS(=O)(=O)O)C(OS(=O)(=O)O)C3OS(=O)(=O)O)C3C=CC(OS(=O)(=O)O)C(OS(=O)(=O)O)C3OS(=O)(=O)O)c2)C2C=CC(OS(=O)(=O)O)C(OS(=O)(=O)O)C2OS(=O)(=O)O)C(OS(=O)(=O)O)C1OS(=O)(=O)O (centres unmarked) [Compound 4d]	52% (Hep)

Quick one: give me Inhibition of binding of bFGF (Hep) for each item below, same order please.
1. O=S(=O)(O)OC[C@H]1O[C@@](COS(=O)(=O)O)(O[C@H]2O[C@H](COS(=O)(=O)O)[C@@H](OS(=O)(=O)O)[C@H](OS(=O)(=O)O)[C@H]2OS(=O)(=O)O)[C@@H](OS(=O)(=O)O)[C@@H]1OS(=O)(=O)O [Sucrose octasulfate, reference compound]
2. O=S(=O)(O)OC1C=CC(N(Cc2ccc(CN(C3C=CC(OS(=O)(=O)O)C(OS(=O)(=O)O)C3OS(=O)(=O)O)C3C=CC(OS(=O)(=O)O)C(OS(=O)(=O)O)C3OS(=O)(=O)O)cc2)C2C=CC(OS(=O)(=O)O)C(OS(=O)(=O)O)C2OS(=O)(=O)O)C(OS(=O)(=O)O)C1OS(=O)(=O)O (centres unmarked) [Compound 4e]

1. 0% (Hep)
2. 49% (Hep)

----------
# MEASURED ON: human platelet heparanase (Homo sapiens, UniProt Q9Y251)
# Construct: 10 ng of purified human platelet heparanase; from tissue; host or cells: human platelets
# Sequence (Q9Y251 158-543 limits assumed): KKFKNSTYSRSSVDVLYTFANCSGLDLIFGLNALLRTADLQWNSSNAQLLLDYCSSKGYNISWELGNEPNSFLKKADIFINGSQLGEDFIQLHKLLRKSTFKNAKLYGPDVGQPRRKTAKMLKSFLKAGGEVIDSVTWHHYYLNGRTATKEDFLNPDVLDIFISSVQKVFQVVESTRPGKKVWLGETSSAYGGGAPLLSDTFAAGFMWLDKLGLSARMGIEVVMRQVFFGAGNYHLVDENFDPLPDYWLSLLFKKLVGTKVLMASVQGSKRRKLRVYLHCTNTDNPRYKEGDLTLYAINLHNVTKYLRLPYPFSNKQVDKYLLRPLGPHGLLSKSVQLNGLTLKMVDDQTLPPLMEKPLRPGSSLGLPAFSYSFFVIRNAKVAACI
# Sequence (Q9Y251 36-109 limits assumed): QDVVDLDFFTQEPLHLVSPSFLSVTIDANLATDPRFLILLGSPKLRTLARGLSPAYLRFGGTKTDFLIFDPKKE
# ASSAY REMARKS: Heparanase inhibition, 3H-radiolabelled HS cleavage assay
# Assay type: biochemical
# MEASUREMENT CONTEXT: based on a comparison with heparin with 100% inhibition at 30 μg/ml
# Description: Briefly, to an incubation mixture of […] containing ^3H-radiolabelled porcine mucosal HS […], 50 mM-sodium acetate buffer, pH 5.0, […] bovine serum albumin and the inhibitor to be tested, was added 10 ng of purified human platelet heparanase and the mixture incubated for 30 min. The reaction was terminated by freezing the assay tubes. […]
Field: Relative inhibition (%). Provide a value for each of the molecules that follow.
One number for each entry, in %.

Worked set:
MOLECULE	MEASURED ON	Relative inhibition (%)
O=S(=O)(O)OC[C@H]1O[C@@](COS(=O)(=O)O)(O[C@H]2O[C@H](COS(=O)(=O)O)[C@@H](OS(=O)(=O)O)[C@H](OS(=O)(=O)O)[C@H]2OS(=O)(=O)O)[C@@H](OS(=O)(=O)O)[C@@H]1OS(=O)(=O)O [Sucrose octasulfate, reference compound]	human platelet heparanase (Homo sapiens, UniProt Q9Y251)	0
O=S(=O)(O)OC1C=CC(N(Cc2ccc(CN(C3C=CC(OS(=O)(=O)O)C(OS(=O)(=O)O)C3OS(=O)(=O)O)C3C=CC(OS(=O)(=O)O)C(OS(=O)(=O)O)C3OS(=O)(=O)O)cc2)C2C=CC(OS(=O)(=O)O)C(OS(=O)(=O)O)C2OS(=O)(=O)O)C(OS(=O)(=O)O)C1OS(=O)(=O)O (centres unmarked)	human platelet heparanase (Homo sapiens, UniProt Q9Y251)	70

Quick one: give me Relative inhibition (%) for each item below, same order please.
1. O=S(=O)(O)OC1C=CC(N(CCCCCCN(C2C=CC(OS(=O)(=O)O)C(OS(=O)(=O)O)C2OS(=O)(=O)O)C2C=CC(OS(=O)(=O)O)C(OS(=O)(=O)O)C2OS(=O)(=O)O)C2C=CC(OS(=O)(=O)O)C(OS(=O)(=O)O)C2OS(=O)(=O)O)C(OS(=O)(=O)O)C1OS(=O)(=O)O (centres unmarked)
2. O=S(=O)(O)OC1C(OS(=O)(=O)O)C(OS(=O)(=O)O)C(N(Cc2cccc(CN(C3C(OS(=O)(=O)O)C(OS(=O)(=O)O)C(OS(=O)(=O)O)C(OS(=O)(=O)O)C3OS(=O)(=O)O)C3C(OS(=O)(=O)O)C(OS(=O)(=O)O)C(OS(=O)(=O)O)C(OS(=O)(=O)O)C3OS(=O)(=O)O)c2)C2C(OS(=O)(=O)O)C(OS(=O)(=O)O)C(OS(=O)(=O)O)C(OS(=O)(=O)O)C2OS(=O)(=O)O)C(OS(=O)(=O)O)C1OS(=O)(=O)O (centres unmarked)
3. O=S(=O)(O)OC1C=CC(N(Cc2cccc(CN(C3C=CC(OS(=O)(=O)O)C(OS(=O)(=O)O)C3OS(=O)(=O)O)C3C=CC(OS(=O)(=O)O)C(OS(=O)(=O)O)C3OS(=O)(=O)O)c2)C2C=CC(OS(=O)(=O)O)C(OS(=O)(=O)O)C2OS(=O)(=O)O)C(OS(=O)(=O)O)C1OS(=O)(=O)O (centres unmarked)

1: 45; 2: 100; 3: 75

----------
Field: Inhibition of binding of bFGF (HS). Provide a value for each of the compounds that follow.
# MEASURED ON: UniProt P09038
# ASSAY REMARKS: Biacore biosensor: inhibition of bFGF binding to immobilised heparin and heparan sulfate
# MEASUREMENT CONTEXT: immobilised heparan sulfate; inhibitor 0.034 μM, bFGF 0.034 μM

Quick one: give me Inhibition of binding of bFGF (HS) for each item below, same order please.
1. O=S(=O)(O)OC1C=CC(N(CCCCCCN(C2C=CC(OS(=O)(=O)O)C(OS(=O)(=O)O)C2OS(=O)(=O)O)C2C=CC(OS(=O)(=O)O)C(OS(=O)(=O)O)C2OS(=O)(=O)O)C2C=CC(OS(=O)(=O)O)C(OS(=O)(=O)O)C2OS(=O)(=O)O)C(OS(=O)(=O)O)C1OS(=O)(=O)O (centres unmarked) [Compound 4b]
2. O=S(=O)(O)OC1C=CC(N(Cc2cccc(CN(C3C=CC(OS(=O)(=O)O)C(OS(=O)(=O)O)C3OS(=O)(=O)O)C3C=CC(OS(=O)(=O)O)C(OS(=O)(=O)O)C3OS(=O)(=O)O)c2)C2C=CC(OS(=O)(=O)O)C(OS(=O)(=O)O)C2OS(=O)(=O)O)C(OS(=O)(=O)O)C1OS(=O)(=O)O (centres unmarked) [Compound 4d]
3. O=S(=O)(O)OC1C=CC(N(Cc2ccc(CN(C3C=CC(OS(=O)(=O)O)C(OS(=O)(=O)O)C3OS(=O)(=O)O)C3C=CC(OS(=O)(=O)O)C(OS(=O)(=O)O)C3OS(=O)(=O)O)cc2)C2C=CC(OS(=O)(=O)O)C(OS(=O)(=O)O)C2OS(=O)(=O)O)C(OS(=O)(=O)O)C1OS(=O)(=O)O (centres unmarked) [Compound 4e]

1. 48% (HS)
2. 68% (HS)
3. 61% (HS)

Quick one: give me Inhibition of binding of bFGF (HS) for each item below, same order please.
1. O=S(=O)(O)OC1C(OS(=O)(=O)O)C(OS(=O)(=O)O)C(N(Cc2cccc(CN(C3C(OS(=O)(=O)O)C(OS(=O)(=O)O)C(OS(=O)(=O)O)C(OS(=O)(=O)O)C3OS(=O)(=O)O)C3C(OS(=O)(=O)O)C(OS(=O)(=O)O)C(OS(=O)(=O)O)C(OS(=O)(=O)O)C3OS(=O)(=O)O)c2)C2C(OS(=O)(=O)O)C(OS(=O)(=O)O)C(OS(=O)(=O)O)C(OS(=O)(=O)O)C2OS(=O)(=O)O)C(OS(=O)(=O)O)C1OS(=O)(=O)O (centres unmarked) [Compound 5d]
2. O=S(=O)(O)OC[C@H]1O[C@@](COS(=O)(=O)O)(O[C@H]2O[C@H](COS(=O)(=O)O)[C@@H](OS(=O)(=O)O)[C@H](OS(=O)(=O)O)[C@H]2OS(=O)(=O)O)[C@@H](OS(=O)(=O)O)[C@@H]1OS(=O)(=O)O [Sucrose octasulfate, reference compound]

48% (HS)
2.5% (HS)
